System: RXF 393 renal
ASSAY SUMMARY: NCI-60 one-dose screen, 48 h
APPLIED CONDITIONS: 10 µM unless noted
This is part of a sample that, as a whole, favours compounds with a hit. Of some 83,000 tested, about 20% had one in any assay. The source made the active and inactive calls. How the source made its calls: active means growth percent below 10; inactive means the rest.
Pick one: active, inactive

Solved entries (count: 3):
Prompt line: Hi team, can someone confirm the assay call for CCCN1C(=O)/C(=c2\sc3n(c2=O)NC2C(N=3)N(CC)C(=O)N2CC)c2ccccc21 (stereo unspecified) ?
Response line: active

Prompt line: Same question, CC[C@]12CN3CCc4c([nH]c5ccccc45)[C@@](C(=O)OC)(c4cc5c(cc4OC)N(C)[C@H]4[C@@](O)(C(=O)OC)[C@H](OC(C)=O)[C@]6(CC)C=CCN7CC[C@]54[C@@H]76)CC(C3)[C@H]1O2 (stereo partly specified) this time
Response line: inactive

Prompt line: Same question, CN1Cn2c(ccc2C(F)(F)F)C(=O)CS1(=O)=O this time
Response line: inactive

Further cases:
Prompt line: Hi team, can someone confirm the assay call for Cc1ccc2nc3ccccc3c(NCc3ccc(Cl)cc3)c2c1 ?
Response line: inactive

Prompt line: Same question, Cn1cc(-c2nc3c(F)cc4[nH]ncc4c3c3c2CCCC3)c(C(F)F)n1 this time
Response line: inactive

Prompt line: Same question, Clc1nccc2c(-c3csc(-c4c[nH]c5ccc(Br)cc45)n3)c[nH]c12 this time
Response line: active

Prompt line: Same question, N#Cc1c(N)nnn1Cc1cc(=O)oc2ccc(O)cc12 this time
Response line: inactive

Prompt line: Same question, COc1ccc2c(c1)CCNC21C(=O)Nc2c(Br)cc(Br)cc21 (stereo unspecified) this time
Response line: inactive
